B1: Ribonuclease HI, P0A7Y4 (parent)
chain: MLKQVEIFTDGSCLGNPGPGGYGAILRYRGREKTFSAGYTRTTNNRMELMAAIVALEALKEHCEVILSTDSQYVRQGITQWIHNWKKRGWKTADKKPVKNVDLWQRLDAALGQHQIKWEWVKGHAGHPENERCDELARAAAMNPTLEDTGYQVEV

# Variants of: B1
# PARTICULARS: Escherichia coli (strain K12); pH 5.5; 25 °C; Urea; CD; Sodium acetate 10 mM; NaCl 0.1 M; reversible: yes; structure 2RN2; whole UniProt chain shown
ASSAY METRIC: denaturant midpoint (higher = more stable) (M)
Number in M, nothing else.

VARIANT NAME: S68A
VALUE UNITS: M
MEASURED NUMBER: 4.8
//
VARIANT NAME: S68V
VALUE UNITS: M
MEASURED NUMBER: 5.1
//
VARIANT NAME: S68T
VALUE UNITS: M
MEASURED NUMBER: 5

Moving on to another variant below.
denaturant midpoint (higher = more stable) for S68G is 4

These entries and their values trace back to FireProtDB (doi:10.1111/j.1432-1033.1992.tb16932.x).
